target: CDK7/Cyclin H/MAT1 complex (Homo sapiens, UniProt P50613); test: CDK7 inhibition assay (Caliper/LabChip EZ Reader kinase assay); format: biochemical; conditions: Table 1; CDK7/Cyclin H/MAT1 6 nM, ATP 2 mM, 35 min at 27° C.
Sequence (P50613 whole entry, species assumed): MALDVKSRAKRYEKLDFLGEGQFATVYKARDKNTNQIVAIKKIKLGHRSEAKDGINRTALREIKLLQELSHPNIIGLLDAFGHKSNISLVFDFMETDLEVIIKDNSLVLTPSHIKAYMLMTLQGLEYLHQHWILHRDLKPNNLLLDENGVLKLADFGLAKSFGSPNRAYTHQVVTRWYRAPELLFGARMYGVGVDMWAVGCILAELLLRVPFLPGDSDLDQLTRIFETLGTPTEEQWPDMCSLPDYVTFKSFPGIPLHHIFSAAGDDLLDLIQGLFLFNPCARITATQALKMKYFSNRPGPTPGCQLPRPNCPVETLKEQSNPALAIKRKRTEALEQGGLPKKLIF
Sequence (P51946 whole entry partner, species assumed): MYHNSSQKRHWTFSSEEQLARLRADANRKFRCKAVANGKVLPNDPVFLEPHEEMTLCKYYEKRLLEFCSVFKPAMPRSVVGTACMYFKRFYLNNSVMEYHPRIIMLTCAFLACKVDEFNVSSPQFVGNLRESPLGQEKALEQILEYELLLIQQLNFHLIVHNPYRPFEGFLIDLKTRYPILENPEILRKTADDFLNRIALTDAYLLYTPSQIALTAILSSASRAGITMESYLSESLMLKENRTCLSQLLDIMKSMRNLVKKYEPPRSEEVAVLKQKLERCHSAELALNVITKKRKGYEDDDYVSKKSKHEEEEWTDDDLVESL
Sequence (P51948 whole entry partner, species assumed): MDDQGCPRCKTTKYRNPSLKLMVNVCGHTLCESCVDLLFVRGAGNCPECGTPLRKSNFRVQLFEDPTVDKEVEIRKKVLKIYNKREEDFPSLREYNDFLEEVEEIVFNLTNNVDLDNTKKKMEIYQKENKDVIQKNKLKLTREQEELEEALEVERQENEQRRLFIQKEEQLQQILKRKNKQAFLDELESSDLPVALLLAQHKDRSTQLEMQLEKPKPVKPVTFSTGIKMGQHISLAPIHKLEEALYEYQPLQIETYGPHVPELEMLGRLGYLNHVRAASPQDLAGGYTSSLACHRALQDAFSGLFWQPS
Item-by-item account of IC50

FC(F)(F)c1cnc(N[C@H]2CCCNC2)nc1-c1c[nH]c2cc(-c3cccnc3)ccc12    < 20 nM
OCCc1cccc(-c2ccc3c(-c4nc(N[C@H]5CCCNC5)ncc4C(F)(F)F)c[nH]c3c2)c1    20 to 200 nM
CCc1cnc(N[C@H]2CCCNC2)nc1-c1c[nH]c2c(S(=O)(=O)O)cccc12    20 to 200 nM
CNC(=O)C1CNCC(Nc2ncc(C(F)(F)F)c(-c3c[nH]c4ccccc34)n2)C1 (single isomer, unassigned) [Compound 253]    < 20 nM
CC1(O)CCC(c2cccc3c(-c4nc(N[C@H]5CCCNC5)ncc4C(F)(F)F)c[nH]c23)CC1 (single isomer, unassigned) [Compound 193]    20 to 200 nM

INPUT: For the molecule Cn1cc(-c2nc(NC3CCCNC3)ncc2C(F)(F)F)c2ccc(C#N)nc21 (centres unmarked) , what IC50 is on record?
OUTPUT: 200 to 5000 nM

INPUT: For the molecule `CN1CCN(c2cccc3c(-c4nc(N[C@H]5CCCNC5)ncc4C(F)(F)F)c[nH]c23)C1=O` , what IC50 is on record?
OUTPUT: < 20 nM

INPUT: For the molecule `CC1(C)CNC[C@@H](Nc2ncc(C(F)(F)F)c(-c3c[nH]c4cc(S(C)(=O)=O)ccc34)n2)C1` , what IC50 is on record?
OUTPUT: 20 to 200 nM

---

target: CDK9/Cyclin T1 complex (Homo sapiens, UniProt P50750); experiment: CDK9 inhibition assay (Caliper/LabChip EZ Reader kinase assay); assay type: biochemical; details: Table 1; CDK9/Cyclin T1 8 nM, ATP 2 mM, 15 min at 27° C.
Sequence (P50750 whole entry, species assumed): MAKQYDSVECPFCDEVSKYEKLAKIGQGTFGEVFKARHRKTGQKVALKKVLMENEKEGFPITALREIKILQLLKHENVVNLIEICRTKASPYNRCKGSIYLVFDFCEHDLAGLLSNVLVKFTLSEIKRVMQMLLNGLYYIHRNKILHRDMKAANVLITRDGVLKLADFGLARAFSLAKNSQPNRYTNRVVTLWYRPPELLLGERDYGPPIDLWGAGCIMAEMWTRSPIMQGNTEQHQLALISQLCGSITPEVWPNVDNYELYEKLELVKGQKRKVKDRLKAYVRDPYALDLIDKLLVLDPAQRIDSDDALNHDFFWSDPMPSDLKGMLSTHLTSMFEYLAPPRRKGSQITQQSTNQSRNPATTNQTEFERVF
Sequence (O60563 whole entry partner, species assumed): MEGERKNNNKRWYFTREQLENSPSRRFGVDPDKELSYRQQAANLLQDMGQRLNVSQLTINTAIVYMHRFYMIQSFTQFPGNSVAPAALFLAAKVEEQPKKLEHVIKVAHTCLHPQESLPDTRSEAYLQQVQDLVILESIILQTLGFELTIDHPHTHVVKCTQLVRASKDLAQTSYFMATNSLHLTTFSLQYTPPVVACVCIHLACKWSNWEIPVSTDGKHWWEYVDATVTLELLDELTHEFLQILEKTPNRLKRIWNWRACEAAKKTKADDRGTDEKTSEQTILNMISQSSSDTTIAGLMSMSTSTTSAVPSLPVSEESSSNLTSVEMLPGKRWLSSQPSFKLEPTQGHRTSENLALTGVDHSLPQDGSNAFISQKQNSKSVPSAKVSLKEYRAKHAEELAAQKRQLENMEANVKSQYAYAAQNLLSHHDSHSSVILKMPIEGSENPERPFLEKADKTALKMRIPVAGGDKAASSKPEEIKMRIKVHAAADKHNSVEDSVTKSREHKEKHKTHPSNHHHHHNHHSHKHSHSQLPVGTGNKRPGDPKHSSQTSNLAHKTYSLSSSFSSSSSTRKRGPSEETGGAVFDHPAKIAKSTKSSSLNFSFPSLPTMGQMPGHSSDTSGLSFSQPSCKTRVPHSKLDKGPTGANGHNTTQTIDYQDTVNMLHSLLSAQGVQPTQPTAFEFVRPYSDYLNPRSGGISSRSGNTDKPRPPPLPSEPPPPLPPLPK
observed_property: IC50

The cases that follow already have their IC50 on record.
O=C(c1ccc2c(-c3nc(N[C@H]4CCCNC4)ncc3C(F)(F)F)c[nH]c2c1)N1CC[C@](O)(C(F)(F)F)C1 (single isomer, unassigned)    0.2 to 5 µM
FC(F)(F)c1cnc(N[C@@H]2CNC[C@H](c3nnc4ccccn34)C2)nc1-c1c[nH]c2ccccc12 [Compound 267]    0.2 to 5 µM
CCc1cnc(-c2c[nH]c3ncc(F)cc23)nc1N[C@H]1CCCNC1    > 5 µM
N#Cc1ccc2c(-c3nc(N[C@H]4CCCNC4)ncc3C(F)(F)F)c[nH]c2n1    0.2 to 5 µM
O=C(C1CCC(Nc2ncc(C(F)(F)F)c(-c3c[nH]c4ccccc34)n2)CN1)N1CCC(O)C1 (mixture of isomers) [Compound 244]    > 5 µM

Then this compound:
INPUT: For the compound N#Cc1ccc2c(-c3nc(N[C@H]4CCC5(CCC5)NC4)ncc3C(F)(F)F)c[nH]c2c1 (single isomer, unassigned) , what IC50 is on record?
OUTPUT: > 5 µM

---

Target: CDK7/Cyclin H/MAT1 complex (Homo sapiens)
Assay: CDK7 inhibition assay (Caliper/LabChip EZ Reader kinase assay)
Assay type: biochemical
Settings: Table 1; CDK7/Cyclin H/MAT1 6 nM, ATP 2 mM, 35 min at 27° C.
Experimental: Compounds of the invention were assayed for inhibition of CDK7, CDK9, CDK12, and CDK2 activity at Biortus Biosciences (Jiangyin, Jiangsu Province, P.R. of China) using kinase assays for each CDK developed with a Caliper/LabChip EZ Reader (Perkin Elmer, Waltham, MA). […]
pIC50: −log10 of the molar value.
observed_property: pIC50

FC(F)(F)c1cnc(N[C@H]2CCCNC2)nc1-c1c[nH]c2cc(-n3ccnc3)ccc12    > 7.70
O=C(c1ccc2c(-c3nc(N[C@H]4CCCNC4)ncc3C(F)(F)F)c[nH]c2c1)N1CC[C@@](O)(C(F)(F)F)C1 (single isomer, unassigned)    > 7.70
[O-][S+](c1ccc2c(-c3nc(N[C@H]4CCCNC4)ncc3C(F)(F)F)c[nH]c2c1)C(F)F (stereo partly shown)    > 7.70

INPUT: For the compound `FC(F)(F)c1cnc(N[C@H]2CCCNC2)nc1-c1c[nH]c2cc(-c3ccc4[nH]cnc4c3)ccc12` , what pIC50 is on record?
OUTPUT: > 7.70
